Tested on: Bacillus subtilis
TEST: Antimicrobial activity against Bacillus subtilis ATCC 20678 incubated for 18 hrs by broth microdilution method
Assay type: functional
PROPERTY_LABEL: MIC (µg/mL)
# output: bare number, implied unit µg/mL

C/C(=N\Nc1cc(O)ncn1)c1csc(Nc2cc(F)cc(C(F)(F)F)c2)n1
256
Fc1cc(Nc2nc(-c3ccc(F)cc3F)cs2)cc(C(F)(F)F)c1
2
C/C(=N\Nc1ncccc1Cl)c1csc(Nc2cc(F)cc(C(F)(F)F)c2)n1
1

Attention now turns to another entry.
The compound COc1cc(Nc2nc(-c3ccc(F)cc3F)cs2)ccc1C(F)(F)F showed MIC equal to 2
